test name: Apparent permeability across basolateral to apical side in MDCK-MDR1 cells at 10 uM incubated for 90 mins by LC-MS/MS analysis
Assay type: ADME, cell-based, Canis lupus familiaris
settings: dog
endpoint: Papp B→A at 1.5 h, 10 µM (×10⁻⁶ cm/s)
One number for each entry, in ×10⁻⁶ cm/s.

• C[C@H]1O[C@@H](O[C@H]2[C@@H](O)C[C@H](O[C@H]3[C@@H](O)C[C@H](O[C@H]4CC[C@@]5(C)[C@H](CC[C@@H]6[C@@H]5C[C@@H](O)[C@]5(C)[C@@H](C7=CC(=O)OC7)CC[C@]65O)C4)O[C@@H]3C)O[C@@H]2C)C[C@H](O)[C@@H]1O [DIGOXIN] = 18

For the 2 compounds below, give their Papp B→A at 1.5 h, 10 µM values.
1. Cc1ccc2ccc3c(c2n1)OC(N)=C(C#N)C3c1ccccc1 (stereo not drawn)
2. Cn1nnc2c(C(N)=O)ncn2c1=O [TEMOZOLOMIDE]

A:
1: 25.8; 2: 31.8

###

Record form. Attribute: pIC50. Fill in for each entry.
Test system: U-87 MG
test name: Antiproliferative activity against human U87 cells assessed as inhibition of cell growth inhibition incubated for 48 hrs by CCK-8 assay
Format: functional, cell-based, U-87MG ATCC
Answers are plain numbers, as −log10 of the molar value.

• CCc1ccc(C2C(C#N)=C(N)Oc3c2ccc2ccc(C)nc32)cc1 (stereo unspecified) = 5.23
• N#CC1=C(N)Oc2c(ccc3cccnc23)C1c1ccc(Cl)c(Cl)c1 (stereo unspecified) = 5.21
• N#CC1=C(N)Oc2c(cc(Cl)c3cccnc23)C1c1ccccc1 (stereo unspecified) = 5.36
• COc1cc(C2C(C#N)=C(N)Oc3c2ccc2ccc(C)nc32)cc(OC)c1Br (stereo unspecified) = 5.54

Q: Item Cc1ccc2ccc3c(c2n1)OC(N)=C(C#N)C3c1cccc(Cl)c1Cl (stereo unspecified) : provide pIC50
A: 5.43

###

test name: Cytotoxicity against HUVEC cells assessed as inhibition of cell growth inhibition incubated for 48 hrs by CCK-8 assay
Format: toxicity, cell-based
settings: human
endpoint: IC50 at 48 h (µM)
Numbers only, in µM.

Illustrative cases are given below, each with its answer.
• N#CC1=C(N)Oc2c(cc(Cl)c3cccnc23)C1c1ccc(Cl)cc1 (stereo not given) = 7.65
• Cc1ccc2ccc3c(c2n1)OC(N)=C(C#N)C3c1ccc(F)cc1 (stereo not given) = 7.58
• COc1cc(OC)c(C2C(C#N)=C(N)Oc3c2ccc2ccc(C)nc32)cc1OC (stereo not given) = 7.87

Q: Item Cc1ccc2ccc3c(c2n1)OC(N)=C(C#N)C3c1ccc(Cl)c(Cl)c1 (stereo not given) : provide IC50 at 48 h
A: 8.17

###

Tested on: U-87 MG
test name: Antiproliferative activity against human U87 cells assessed as inhibition of cell growth inhibition incubated for 48 hrs by CCK-8 assay
Type: functional, cell-based, U-87MG ATCC
Record form. Attribute: IC50. Fill in for each entry.

For the 2 compounds below, give their IC50 values.
1. Cc1ccc2ccc3c(c2n1)OC(N)=C(C#N)C3c1ccc(F)cc1 (stereo not given)
2. Cc1ccc2ccc3c(c2n1)OC(N)=C(C#N)C3c1ccccc1 (stereo not given)

A:
1. 7.87 µM
2. 0.9 µM

###

Record form. Attribute: efflux ratio at 1.5 h, 10 µM. Fill in for each entry.
Test system: P-gp
test name: Substrate activity at P-gp in MDCK-MDR1 cells assessed as efflux ratio of apparent permeability across basolateral to apical side over apical to basolateral side at 10 uM incubated for 90 mins by LC-MS/MS analysis
Assay type: ADME, cell-based, Canis lupus familiaris
settings: dog
Answers are plain numbers.

For the 3 molecules below, give their efflux ratio at 1.5 h, 10 µM values.
1. C[C@H]1O[C@@H](O[C@H]2[C@@H](O)C[C@H](O[C@H]3[C@@H](O)C[C@H](O[C@H]4CC[C@@]5(C)[C@H](CC[C@@H]6[C@@H]5C[C@@H](O)[C@]5(C)[C@@H](C7=CC(=O)OC7)CC[C@]65O)C4)O[C@@H]3C)O[C@@H]2C)C[C@H](O)[C@@H]1O
2. Cn1nnc2c(C(N)=O)ncn2c1=O [TEMOZOLOMIDE]
3. Cc1ccc2ccc3c(c2n1)OC(N)=C(C#N)C3c1ccccc1 (stereo not drawn)

A:
[36.9, 1.04, 0.76]

###

System: Huh-7
test name: Antiproliferative activity against human Huh-7 cells assessed as inhibition of cell growth inhibition incubated for 48 hrs by CCK-8 assay
Assay type: functional, cell-based
settings: Huh-7, 48 h
endpoint: IC50 (µM)
Answers are plain numbers, in µM.

• Cc1ccc2ccc3c(c2n1)OC(N)=C(C#N)C3c1ccc(Cl)c(Cl)c1 (configuration not stated) = 1.25
• COc1ccc(C2C(C#N)=C(N)Oc3c2ccc2ccc(C)nc32)c(OC)c1OC (configuration not stated) = 4.89
• N#CC1=C(N)Oc2c(cc(Cl)c3cccnc23)C1c1ccc(Cl)c(Cl)c1 (configuration not stated) = 2.14
• Cc1ccc2ccc3c(c2n1)OC(N)=C(C#N)C3c1ccccc1 (configuration not stated) = 1.19

For the 5 compounds below, give their IC50 values.
1. Cc1ccc2ccc3c(c2n1)OC(N)=C(C#N)C3c1ccc(Cl)cc1 (configuration not stated)
2. Cc1ccc2ccc3c(c2n1)OC(N)=C(C#N)C3c1cccc(Cl)c1Cl (configuration not stated)
3. Cc1ccc2ccc3c(c2n1)OC(N)=C(C#N)C3c1ccc(C(C)C)cc1 (configuration not stated)
4. Cc1ccc(C2C(C#N)=C(N)Oc3c2ccc2ccc(C)nc32)cc1 (configuration not stated)
5. COc1cc(OC)c(C2C(C#N)=C(N)Oc3c2ccc2ccc(C)nc32)cc1OC (configuration not stated)

A:
5.31
2.22
6.34
5.51
4.64

For the 3 compounds below, give their IC50 values.
1. CC[C@@]1(O)C(=O)OCc2c1cc1n(c2=O)Cc2cc3cc(O)ccc3nc2-1 [HYDROXYCAMPTOTHECIN]
2. Cc1ccc2ccc3c(c2n1)OC(N)=C(C#N)C3c1ccc(F)cc1 (configuration not stated)
3. CCc1ccc(C2C(C#N)=C(N)Oc3c2ccc2ccc(C)nc32)cc1 (configuration not stated)

A:
1.35
2
3.46

For the 2 compounds below, give their IC50 values.
1. N#CC1=C(N)Oc2c(cc(Cl)c3cccnc23)C1c1ccc(Cl)cc1 (configuration not stated)
2. N#CC1=C(N)Oc2c(cc(Cl)c3cccnc23)C1c1ccccc1 (configuration not stated)

A:
1: 4.57; 2: 0.3

###

test name: Apparent permeability across apical to basolateral side in MDCK-MDR1 cells at 10 uM incubated for 90 mins by LC-MS/MS analysis
Format: ADME, cell-based, Canis lupus familiaris
settings: dog
Record form. Attribute: Papp A→B at 1.5 h, 10 µM. Fill in for each entry.
One number for each entry, in ×10⁻⁶ cm/s.

• Cc1ccc2ccc3c(c2n1)OC(N)=C(C#N)C3c1ccccc1 (stereo not drawn) = 33.7
• Cn1nnc2c(C(N)=O)ncn2c1=O [TEMOZOLOMIDE] = 30.6

Q: Item C[C@H]1O[C@@H](O[C@H]2[C@@H](O)C[C@H](O[C@H]3[C@@H](O)C[C@H](O[C@H]4CC[C@@]5(C)[C@H](CC[C@@H]6[C@@H]5C[C@@H](O)[C@]5(C)[C@@H](C7=CC(=O)OC7)CC[C@]65O)C4)O[C@@H]3C)O[C@@H]2C)C[C@H](O)[C@@H]1O : provide Papp A→B at 1.5 h, 10 µM
A: 0.49

###

Record form. Attribute: IC50. Fill in for each entry.
Tested on: U-87 MG
test name: Antiproliferative activity against human U87 cells assessed as inhibition of cell growth inhibition incubated for 48 hrs by CCK-8 assay
Assay type: functional, cell-based, U-87MG ATCC

• Cc1ccc(C2C(C#N)=C(N)Oc3c2ccc2ccc(C)nc32)cc1 (stereo unspecified) = 6.12 µM
• CC[C@@]1(O)C(=O)OCc2c1cc1n(c2=O)Cc2cc3cc(O)ccc3nc2-1 [HYDROXYCAMPTOTHECIN] = 2.92 µM
• COc1ccc(C2C(C#N)=C(N)Oc3c2ccc2ccc(C)nc32)cc1OC (stereo unspecified) = 4.85 µM
• Cc1ccc2ccc3c(c2n1)OC(N)=C(C#N)C3c1ccc(Br)cc1 (stereo unspecified) = > 10 µM
• N#CC1=C(N)Oc2c(cc(Cl)c3cccnc23)C1c1ccc(Cl)cc1 (stereo unspecified) = > 10 µM

Now let's try a different one.
Q: Item N#CC1=C(N)Oc2c(ccc3cccnc23)C1c1ccc(F)cc1 (stereo unspecified) : provide IC50
A: > 10 µM

###

Tested on: U-87 MG
test name: Antiproliferative activity against human U87 cells assessed as inhibition of cell growth inhibition incubated for 48 hrs by CCK-8 assay
Format: functional, cell-based, U-87MG ATCC
endpoint: pIC50
One number for each entry, as −log10 of the molar value.

Illustrative cases are given below, each with its answer.
* COc1cc(OC)c(C2C(C#N)=C(N)Oc3c2ccc2ccc(C)nc32)cc1OC (stereo not drawn) | 5.33
* Cc1ccc2ccc3c(c2n1)OC(N)=C(C#N)C3c1ccc(Cl)cc1 (stereo not drawn) | 5.09
* COc1ccc(C2C(C#N)=C(N)Oc3c2ccc2ccc(C)nc32)c(OC)c1OC (stereo not drawn) | 5.28

For the 3 compounds below, give their pIC50 values.
1. N#CC1=C(N)Oc2c(cc(Cl)c3cccnc23)C1c1ccc(Cl)c(Cl)c1 (stereo not drawn)
2. Cc1ccc2ccc3c(c2n1)OC(N)=C(C#N)C3c1ccc(C(C)C)cc1 (stereo not drawn)
3. Cc1ccc2ccc3c(c2n1)OC(N)=C(C#N)C3c1ccc(Cl)c(Cl)c1 (stereo not drawn)

A:
1. 5.38
2. 5.37
3. 5.70
